test system: Colo-205; assay: Cell proliferation IC50 (Cell Titer Glo); format: cell-based; conditions: Homo sapiens, COLO 205, 96 h, read-out: IC50 cell proliferation
Readout: pIC50
Please keep in mind that pIC50 is minus log10 of the molar concentration; only the number is needed.

According to the records, this compound O=C(NOC[C@H](O)CO)c1ccc(F)c(F)c1Nc1ccc(I)cc1F [cpd. b, PD0325901] displays pIC50 of 8.30

---

tested on: Malme 3M; assay: Cell proliferation IC50 (Cell Titer Glo); assay type: cell-based; settings: Homo sapiens, 96 h; Malme 3M, Melanoma, BRAF V600E Homozygous; 4 days continuous exposure; read-out: IC50 cell proliferation
Readout: IC50 (nM)
Respond with the bare value in nM.

Reading of IC50 for O=C(Nc1ccc2[nH]nc(-c3ccncc3)c2c1)C1CCN(CC(=O)N2CCN(c3ccc(-c4ncccn4)cc3)CC2)C1 (stereo not shown) [cpd. a] with Malme 3M: 10
